# Target or system: Bcl-2 (human) (UniProt P10415)
# Test name: SPR; Biacore S200; Bcl-2 family proteins immobilised on CM5 (amine coupling or His-Capture Kit); peptides and flag-tagged proteins as analytes, single-cycle kinetics, HBS-EP, 25 °C; 1:1 Langmuir model; absence of binding probed at 100 nM and 3 µM
The entries below are paired with their reported Kd.
A number alone suffices; assume nM.

>>> print(df.to_string())
                                     binder  experimental_readout  unit_tag  measured
0  ESQEDIIRNIARHLAQVGDSMDRSI [Bid BH3 peptide (25-mer, residues 77-101)]                    Kd        nM      96.7

Now let's try a different one.
The binder identified as ESQEDIIRNIIRHLAQVGDSMDRSI [Bid (A87I) peptide] registered its Kd at 158

FYI, the data here is from paper PMC8316464.
